Property: Selectivity Index; scope: individual compounds
# Species: Homo sapiens
# MEASUREMENT_DESCRIPTION: Selectivity index, ratio of IC50 for human recombinant COX1 to IC50 for human recombinant COX2 using arachidonic acid as substrate preincubated for 10 mins measured after substrate addition by microplate reader based enzyme immunoassay
Returns: the value as a bare number; no unit string appended.

COC(=O)CC1N(C(=O)Nc2nc(C)cs2)C(=O)c2ccccc2S1(=O)=O (centres undefined): 8.3
CC1NC(=O)c2ccccc2S1(=O)=O (centres undefined): 0.65

Prompt: Would you kindly share the measured Selectivity Index for CC1N(C(=O)Nc2ccccn2)C(=O)c2ccccc2S1(=O)=O (centres undefined) ?
Completion: 1.3
